These measurements were taken from paper PMC4336329.

Give measured hERG current change (%, negative = inhibition) at 10uM for each item. Keep answers brief.
# target_or_system: human ether-à-go-go-related gene (hERG) potassium channel (human, UniProt Q12809);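 also: peak tail current of the secondary pulse compared with the same well before compound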
# Sequence (Q12809 whole entry, looked up): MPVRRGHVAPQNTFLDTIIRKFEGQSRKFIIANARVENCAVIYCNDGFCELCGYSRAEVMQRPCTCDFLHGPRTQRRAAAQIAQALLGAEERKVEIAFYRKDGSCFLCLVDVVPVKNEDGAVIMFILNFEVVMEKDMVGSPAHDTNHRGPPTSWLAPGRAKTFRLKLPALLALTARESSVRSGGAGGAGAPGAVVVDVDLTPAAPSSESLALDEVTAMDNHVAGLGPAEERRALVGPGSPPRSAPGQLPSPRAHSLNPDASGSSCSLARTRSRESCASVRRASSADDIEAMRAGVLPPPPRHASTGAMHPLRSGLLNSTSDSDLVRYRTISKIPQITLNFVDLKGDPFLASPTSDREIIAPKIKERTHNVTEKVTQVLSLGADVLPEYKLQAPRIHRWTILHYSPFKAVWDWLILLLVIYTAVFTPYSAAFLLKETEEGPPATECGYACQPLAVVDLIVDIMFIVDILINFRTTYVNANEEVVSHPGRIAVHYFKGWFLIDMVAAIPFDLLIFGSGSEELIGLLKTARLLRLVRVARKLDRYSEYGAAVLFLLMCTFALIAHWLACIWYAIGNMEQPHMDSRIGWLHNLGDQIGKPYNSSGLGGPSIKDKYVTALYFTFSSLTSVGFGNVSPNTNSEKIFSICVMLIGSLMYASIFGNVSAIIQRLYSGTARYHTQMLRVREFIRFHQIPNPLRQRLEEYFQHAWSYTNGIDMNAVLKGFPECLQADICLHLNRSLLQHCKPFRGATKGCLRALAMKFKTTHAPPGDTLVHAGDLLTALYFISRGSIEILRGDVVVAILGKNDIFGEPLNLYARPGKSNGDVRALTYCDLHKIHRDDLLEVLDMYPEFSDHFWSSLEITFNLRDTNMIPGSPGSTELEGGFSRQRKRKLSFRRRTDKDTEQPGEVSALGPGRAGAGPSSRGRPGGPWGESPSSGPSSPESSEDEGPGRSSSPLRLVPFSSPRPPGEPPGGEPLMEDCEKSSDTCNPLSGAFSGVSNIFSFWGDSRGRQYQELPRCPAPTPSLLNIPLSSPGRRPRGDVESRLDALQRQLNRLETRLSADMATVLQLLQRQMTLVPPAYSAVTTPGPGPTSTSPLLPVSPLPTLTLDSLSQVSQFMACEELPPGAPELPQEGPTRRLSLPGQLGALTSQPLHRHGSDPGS
# method_description: primary screen, population patch clamp on CHO cells stably expressing hERG; higher = less effect of the substance
The whole screen tested about 310,000 compounds, of which about 14,000 (4.5%) showed an effect of 50% or more. The effect is printed as a negative number. Only a selection was taken, and strong results are over-represented in it overall.
One number for each entry, in %.

molecule	measure_unit	recorded_result
Cc1ccc(NC(=O)CSc2nnc(C(F)(F)F)n2C)cc1[N+](=O)[O-]	%	-73.6
CCOc1ccc(N2CC(C(=O)NCCCc3ccccc3)CC2=O)cc1 (centres unmarked)	%	-51.2

I'm hoping you can list hERG current change (%, negative = inhibition) at 10uM for every molecule here, please.
1. Cn1c(-c2ccc3c(c2)OCO3)cnc1NCc1ccccc1.O=C(O)C(=O)O
2. Cn1c(-c2ccc3c(c2)OCO3)cnc1N
3. COc1ccccc1/C=C/C=N/N1CCN(Cc2ccccc2)CC1
4. Cc1ccc(CNc2ccc3c(c2)OCO3)cc1
5. CCOc1ccc(N2CC(C(=O)NCCc3ccccc3)CC2=O)cc1 (centres unmarked)

Return:
-60
-16.5
-8.94
-4.29
-29.6

====

# target_or_system: human ether-à-go-go-related gene (hERG) potassium channel (human, UniProt Q12809);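 also: peak tail current of the secondary pulse compared with the same well before compound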
# method_description: primary screen, population patch clamp on CHO cells stably expressing hERG; higher = less effect of the substance
The campaign covered roughly 310,000 compounds. About 14,000 (4.5%) showed an effect of 50% or more. Effects have a minus sign here. The sample as a whole holds a higher share of strong results than the screen did.
Give measured hERG current change (%, negative = inhibition) at 10uM for each item. Keep answers brief.
Give bare numbers, in %.

compound	recorded_result
CC12CCC(C(=O)NCCN3CCCCC3)(CC1=O)C2(C)C (centres unmarked)	-2.12

I'm hoping you can list hERG current change (%, negative = inhibition) at 10uM for every compound here, please.
1. O=C(Nc1cccc(Cl)c1)c1cc([N+](=O)[O-])ccc1N1CCN(CCO)CC1
2. COc1ccc(-c2cc(C(=O)N3CCN(C(=O)c4ccco4)CC3)[nH]n2)cc1
3. Cl.Nc1nonc1C(=O)NCCNCc1ccccc1OCc1ccccc1F
4. O=C(c1cc(-c2ccc(Cl)cc2)n[nH]1)N1CCN(C(=O)c2ccco2)CC1
5. O=C(CN(C(=O)c1csnn1)c1ccc(F)cc1)NCc1ccc2c(c1)OCO2

Return:
1. -53
2. -31.6
3. -60.5
4. -68.9
5. 9.12

I'm hoping you can list hERG current change (%, negative = inhibition) at 10uM for every compound here, please.
1. Cc1cccc(Cn2cccc2/C=C2/C(=N)N3C=CSC3=NC2=O)c1
2. COc1cc(NC(=O)c2ccc(F)cc2)c(OC)cc1Cl
3. COc1ccc(N2CCN(CCOc3ccc4c(C)cc(=O)oc4c3)CC2)cc1
4. COc1ccccc1CN(CC(=O)NCc1ccc2c(c1)OCO2)C(=O)c1ccc2c(c1)OCCO2

Return:
[-1.72, 3, -26.1, -28.4]

I'm hoping you can list hERG current change (%, negative = inhibition) at 10uM for every compound here, please.
1. CCCCC(CC)C(=O)Nc1cc(C(=O)NCCC)ccc1N1CCC2(CC1)CC(c1cccc(Br)c1)=NO2 (centres unmarked)
2. CCOc1ccc(-c2nnc(-c3cccs3)o2)cc1OCC
3. CNCC(O)CN1CCN(c2ccccc2OC)CC1.Cl (centres unmarked)
4. Cc1cc(NC(=O)c2ccc3nc(-c4ccccc4)c(-c4ccccc4)nc3c2)no1
5. O=C(OCc1nnc(-c2cccs2)o1)c1cccnc1Cl
6. NS(=O)(=O)c1cccc(C(=O)NC2CCSc3ccccc32)c1 (centres unmarked)
7. Cc1ccc(CN2CC(C(=O)N(C)CC(=O)Nc3cccc(F)c3)CC2=O)cc1 (centres unmarked)

Return:
1. -7.85
2. 1.32
3. 12.7
4. 6.59
5. 4.2
6. 7.91
7. -7.16
